target: Nucleoprotein (Lymphocytic choriomeningitis virus (strain Armstrong)) (UniProt P09992); assay: qHTS for Inhibitors of the Functional Ribonucleoprotein Complex (vRNP) of Lymphocytic Choriomeningitis Arenaviruses (LCMV): LCMV Primary Screen - GLuc reporter signal (AID 1347086); conditions: LCMV minigenome vRNP cell assay, Gaussia luciferase reporter; series mostly up to 57.5 µM; also: nearly all actives have a fitted effect of over 70% in size
Sequence (P09992 whole entry, looked up): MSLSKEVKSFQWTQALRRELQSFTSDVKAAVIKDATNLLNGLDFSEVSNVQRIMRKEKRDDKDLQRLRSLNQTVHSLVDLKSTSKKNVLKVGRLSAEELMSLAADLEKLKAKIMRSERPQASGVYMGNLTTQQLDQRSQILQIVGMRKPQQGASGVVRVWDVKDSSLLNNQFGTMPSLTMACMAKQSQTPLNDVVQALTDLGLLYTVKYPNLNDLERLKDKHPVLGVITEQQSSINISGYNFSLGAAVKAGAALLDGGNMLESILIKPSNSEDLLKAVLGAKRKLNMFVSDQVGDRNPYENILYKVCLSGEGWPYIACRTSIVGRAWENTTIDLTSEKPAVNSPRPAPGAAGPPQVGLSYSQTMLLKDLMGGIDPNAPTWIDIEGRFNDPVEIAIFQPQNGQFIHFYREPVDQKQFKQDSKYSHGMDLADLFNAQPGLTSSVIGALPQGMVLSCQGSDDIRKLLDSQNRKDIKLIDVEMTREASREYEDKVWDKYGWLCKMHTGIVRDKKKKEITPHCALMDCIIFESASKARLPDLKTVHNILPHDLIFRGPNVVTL
Results filed as inconclusive are left out. The source made the active and inactive calls. Calls follow the shape of the full dose curve.
Outcomes: true = active, false = inactive

- smi: "CC(C)C[C@H](NC(=O)[C@@H](O)[C@H](N)Cc1ccccc1)C(=O)O"
  assigned.label: "false"
- smi: "Cc1cc2c(F)c(Oc3ncnn4cc(OC[C@@H](C)O)c(C)c34)ccc2[nH]1"
  assigned.label: "true"
- smi: "NC(=O)c1ccc(-c2nc(-c3ccc4c(c3)OCCO4)c(-c3ccccn3)[nH]2)cc1"
  assigned.label: "false"

====

assay: qHTS of pediatric cancer cell lines to identify multiple opportunities for drug repurposing: Primary screen for LAN-5 cells (AID 1347100); conditions: LAN-5 neuroblastoma viability, CellTiter-Glo luminescence, 48 h; series mostly up to 46 µM
Records with an inconclusive call do not appear. Calls of active or inactive are those of the source. Calls follow the shape of the dose curve; as a rule, active = well fitted cell-killing curve with a large enough effect; inconclusive = small, poorly fitted or top-dose-only effect; inactive = no such curve, though single readings can be large or run the other way.
Outcomes: active, inactive

- molecule: "CCOC(=O)c1cncn1[C@H](C)c1ccccc1"
  assigned.label: "inactive"
- molecule: "C[C@@H]1CC[C@H]2[C@@H](C)C(=O)O[C@@H]3O[C@@]4(C)CC[C@H]1[C@]32OO4"
  assigned.label: "inactive"
- molecule: "COCCOCCO"
  assigned.label: "inactive"
- molecule: "COc1ccc2c(c1)CN(C)CC2c1ccc(Cl)c(Cl)c1 (centres undefined)"
  assigned.label: "active"
- molecule: "O=[N+]([O-])c1c(Cl)c(Cl)cc(Cl)c1Cl"
  assigned.label: "inactive"
- molecule: "Nc1ccc(Cl)cc1"
  assigned.label: "inactive"
- molecule: "CC(C)N[C@@H]1CCn2c(=O)[nH]c3cccc(c32)[C@@H]1O"
  assigned.label: "active"
- molecule: "C[C@]12Cc3cn[nH]c3C[C@@H]1CC[C@@H]1[C@H]2CC[C@@]2(C)[C@H]1CC[C@]2(C)O"
  assigned.label: "inactive"
- molecule: "COc1ccc(N(C(=O)Oc2c(C)cccc2C)c2ccnc(Nc3ccc(N4CCN(C)CC4)cc3)n2)c(OC)c1"
  assigned.label: "active"
- molecule: "Cc1ccc(Cl)c(O)c1"
  assigned.label: "inactive"
- molecule: "C[C@H]1CCCC=CC2C[C@H](O)C[C@@H]2[C@H](O)C=CC(=O)O1 (some centres undefined)"
  assigned.label: "active"
- molecule: "CCOP(=O)(NC(C)C)Oc1ccc(SC)c(C)c1 (centres undefined)"
  assigned.label: "inactive"
- molecule: "CCc1c(C(=O)C(N)=O)c2c(OCC(=O)O)cccc2n1Cc1ccccc1"
  assigned.label: "inactive"
- molecule: "CCOC(=O)c1c(C(C#N)=CN)c2ccc(Cl)c(Cl)c2n1C"
  assigned.label: "inactive"
- molecule: "COc1ccc2c(c[n+](C)c3c4cc5c(cc4ccc23)OCO5)c1OC"
  assigned.label: "active"
- molecule: "Cc1nc(-c2ccc(-c3ccc(C(=O)N4CCc5cc6c(cc54)C4(CCN(C)CC4)CO6)cc3)c(C)c2)no1"
  assigned.label: "inactive"
- molecule: "COCC1(CO)C(=O)C2CCN1CC2 (centres undefined)"
  assigned.label: "active"
- molecule: "O=C(O)CCCOc1ccc(Cl)cc1Cl"
  assigned.label: "inactive"
- molecule: "Cc1ccccc1-n1c(Cn2cnc3c(N)ncnc32)nc2cccc(C)c2c1=O"
  assigned.label: "active"

Data origin: PubChem BioAssay (NCATS)
